Test: Liver microsomal metabolic stability, mouse
Type: in vitro ADME
Conditions: liver microsomes, 0.5 mg/mL microsomes, 1 μM compound, NADPH, read-out: Liver microsomal stability T1/2
Experimental endpoint: half-life at 1 μM (min)
# value in min; strip the unit string

Guide cases for half-life at 1 μM, answers given:
Request: Answer with reported half-life at 1 μM of COc1cc(F)cc([C@@H](CO)NC(=O)[C@@H](C)N2Cc3ccc(-c4nc(NC5CCOCC5)ncc4Cl)nc3C2=O)c1
Result: 32

Request: Answer with reported half-life at 1 μM of COc1cc(F)cc([C@@H](CO)NC(=O)[C@@H](C)N2Cc3ccc(-c4nc(NC5CCOCC5)ncc4Cl)cc3C2=O)c1 [Comparative compound 5, reference compound]
Result: 15

***
Request: Answer with reported half-life at 1 μM of C[C@H](C(=O)N[C@H](CO)c1cccc(Cl)c1)N1Cc2ccc(-c3nc(NC4CCOCC4)ncc3Cl)nc2C1=O
Result: 234

Request: Answer with reported half-life at 1 μM of COc1cc(F)cc([C@@H](CO)NC(=O)[C@@H](C)N2Cc3ccc(-c4nc(NC5CCOCC5)ncc4F)c(F)c3C2=O)c1
Result: 13
